B1: RPAIN (parent)
chain: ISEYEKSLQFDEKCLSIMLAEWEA

Variants of: B1
test-method-notes: protein stability index of a GFP-peptide fusion (GPS, HEK-293T) (PSI 1-6); higher = more stable;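 further: lentivirally expressed fusions sorted by FACS into six bins by GFP to DsRed ratio, PSI derived from sequencing read proportions per bin multiplied by bin number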
experimental-parameters: c terminus: a fixed tail appended
Each record here notes measured protein stability index.
Give the figure by itself; no unit, no explanation.

[
  {
    "mutation-name": "C14F",
    "protein stability index": 2.38
  },
  {
    "mutation-name": "L15D",
    "protein stability index": 4.09
  },
  {
    "mutation-name": "L19Q",
    "protein stability index": 3.6
  }
]

// query Look up protein stability index: `Q9L`
// result 1.46

// query Look up protein stability index: `S7C`
// result 2.46

// query Look up protein stability index: `E3P`
// result 1.42

// query Look up protein stability index: `Y4T`
// result 2.5

// query Look up protein stability index: `I17H`
// result 2.51

// query Look up protein stability index: `S16G`
// result 2.34

// query Look up protein stability index: `A24C`
// result 1.99

// query Look up protein stability index: `E23H`
// result 2.59

// query Look up protein stability index: `E3M`
// result 1.82

// query Look up protein stability index: `A20Q`
// result 2.19

// query Look up protein stability index: `E12D`
// result 2.17

// query Look up protein stability index: `K13E`
// result 1.71

// query Look up protein stability index: `K13F`
// result 1.91

// query Look up protein stability index: `S16E`
// result 1.96

These entries and their values trace back to the supplement of paper PMC10567573.
